Provide the reported selectivity ratio of each item.
Assay Summary: Selectivity index, ratio of IC50 for rat L6 cells to IC50 for blood stream form of Trypanosoma brucei rhodesiense STIB900
Assay type: toxicity
Measurement Conditions: read-out: Ratio IC50

Reported selectivity ratio for Cl.O=[N+]([O-])c1nccn1CCCNc1ccnc2cc(Cl)ccc12 : what is it? 18

Requested read-out: selectivity ratio. Entry: O=[N+]([O-])c1ncn(CCCCNc2ccnc3c(Cl)cccc23)n1 1940

# input compound: Cl.O=[N+]([O-])c1ncn(CCCCNc2ccnc3cc(Cl)ccc23)n1 ; wanted: its selectivity ratio 710

selectivity ratio lookup needed for Clc1cccc2c(NCCCCn3cncn3)ccnc12 , thanks. 2.8

###

Assay Summary: Selectivity index, ratio of TC50 for African green monkey Vero cells to MIC for Mycobacterium tuberculosis H37Rv ATCC 27294 expressing luxABCDE operon
Format: toxicity
Measurement Conditions: read-out: Selectivity Index
Endpoint Name: selectivity ratio
No unit in the answer, only the number.

Please report the recorded selectivity ratio for O=[N+]([O-])c1nccn1CCCCNc1ccnc2c(Cl)cccc12 . 16

###

I'd be grateful if you could share measured selectivity ratio for these entries.
Assay Summary: Selectivity index, ratio of IC50 for rat L6 cells to IC50 for blood stream form of Trypanosoma brucei rhodesiense STIB900
Type: toxicity
Measurement Conditions: read-out: Ratio IC50
Keep it simple and answer with nothing but the number.

Endpoint output: selectivity ratio of O=[N+]([O-])c1nccn1CCCCNc1ccnc2c(Cl)cccc12 . Value? 29

Entry O=[N+]([O-])c1nccn1CCCNc1ccnc2c(Cl)cccc12 : reported selectivity ratio = ? 83

# get_value(readout='selectivity ratio', item= O=[N+]([O-])c1nccn1CCCCNc1ncnc2ccccc12 ) 3.5

Returns the measured selectivity ratio for the input compound. Input: O=[N+]([O-])c1nccn1CCCNc1ncnc2ccccc12 2.9

selectivity ratio lookup needed for Cl.O=[N+]([O-])c1nccn1CCCCNc1ccnc2cc(Cl)ccc12 , thanks. 36

So what's the measured selectivity ratio for this one? O=[N+]([O-])c1ncn(CCCCNc2ncnc3ccccc23)n1 88

###

System: Trypanosoma cruzi
Assay Summary: Antitrypanosomal activity against Trypanosoma cruzi Tulahuen C4 amastigotes infected in rat L6 cells after 96 hrs by CPRG/nonidet-based inverted microscopic analysis
Type: functional, organism-based
Measurement Conditions: Tulahuen C4, L6, 96 h
Endpoint Name: IC50
The answer should read as a number with its unit following.

Need IC50 of O=[N+]([O-])c1ncn(CCCCNc2ncnc3ccccc23)n1 , thanks. 872 nM

Query: IC50; subject: Clc1cccc2c(NCCCCn3cncn3)ccnc12 48600 nM

State the recorded IC50 for this entry: O=C(Cn1ccnc1[N+](=O)[O-])NCc1ccccc1 2240 nM

Consider the compound shown here: O=[N+]([O-])c1nccn1CCCNc1ccnc2c(Cl)cccc12 What is its recorded IC50? 1110 nM

Fill in: IC50 of O=[N+]([O-])c1nccn1CCCNc1ncnc2ccccc12 is ___ 1830 nM

Can you share its IC50? I mean this compound: O=[N+]([O-])c1ncn(CCCCNc2ccnc3c(Cl)cccc23)n1 574 nM

Requested field: IC50. Item: O=[N+]([O-])c1nccn1CCCCNc1ncnc2ccccc12 2320 nM

Name the recorded IC50 for O=[N+]([O-])c1nccn1CCCCNc1ccnc2c(Cl)cccc12 . 2040 nM

###

Give measured MIC for each item. Keep answers brief.
Tested on: Mycobacterium tuberculosis
Assay Summary: Antitubercular activity against Mycobacterium tuberculosis RIF-R2 ATCC 35828 after 5 days by fluorescence-based assay
Assay type: functional
Measurement Conditions: RIF-R2 ATCC 35828, 120 h

So what does the record say about MIC for O=[N+]([O-])c1nccn1CCCCNc1ccnc2c(Cl)cccc12 ? > 200 µM

Item NNC(=O)c1ccncc1 [ISONIAZID] has what recorded MIC? 0.67 µM

What value of MIC has been recorded for this entry: C[C@H]1COc2c(N3CCN(C)CC3)c(F)cc3c(=O)c(C(=O)O)cn1c23.C[C@H]1COc2c(N3CCN(C)CC3)c(F)cc3c(=O)c(C(=O)O)cn1c23.O [LEVOFLOXACIN] 1.4 µM

Could you tell me which MIC is on file for O=[N+]([O-])c1ncn(CCCCNc2ncnc3ccccc23)n1 ? > 200 µM

Endpoint output: MIC of CO[C@H]1/C=C/O[C@@]2(C)Oc3c(C)c(O)c4c(O)c(c(/C=N/N5CCN(C)CC5)c(O)c4c3C2=O)NC(=O)/C(C)=C\C=C\[C@H](C)[C@H](O)[C@@H](C)[C@@H](O)[C@@H](C)[C@H](OC(C)=O)[C@@H]1C [RIFAMPIN] . Value? > 50 µM

###

I'd appreciate it if you could supply MIC values for the items below.
Test system: Mycobacterium tuberculosis
Assay Summary: Antitubercular activity against Mycobacterium tuberculosis H37Rv ATCC 27294 after 5 days measured under aerobic conditions by fluorescence-based assay
Assay type: functional, organism-based
Measurement Conditions: H37Rv ATCC 27294, 120 h

Need MIC, item O=[N+]([O-])c1nccn1CCCNc1ccnc2c(Cl)cccc12 > 200 µM

# query: MIC of entry CO[C@H]1/C=C/O[C@@]2(C)Oc3c(C)c(O)c4c(O)c(c(/C=N/N5CCN(C)CC5)c(O)c4c3C2=O)NC(=O)/C(C)=C\C=C\[C@H](C)[C@H](O)[C@@H](C)[C@@H](O)[C@@H](C)[C@H](OC(C)=O)[C@@H]1C 0.015 µM

Quick one: MIC of Cc1ncc([N+](=O)[O-])n1CCO ? > 200 µM

If you can, please state the reported MIC value of Cl.O=[N+]([O-])c1nccn1CCCCNc1ccnc2cc(Cl)ccc12 . > 128 µM

Can you look up the measured MIC of O=[N+]([O-])c1ncn(CCCCNc2ncnc3ccccc23)n1 for me? 200 µM

Bench note: what MIC did O=[N+]([O-])c1nccn1CCCCNc1ncnc2ccccc12 show? > 200 µM

// returns reported MIC for input O=[N+]([O-])c1ncn(CCCCNc2ccnc3c(Cl)cccc23)n1 > 200 µM

Field request: MIC | item: Cl.O=[N+]([O-])c1nccn1CCCNc1ccnc2cc(Cl)ccc12 > 128 µM

What value of MIC has been recorded for this entry: O=[N+]([O-])c1nccn1CCCCNc1ccnc2c(Cl)cccc12 > 200 µM

###

Assay Summary: Cytotoxicity against African green monkey Vero cells assessed as reduction in cell viability after 2 days by cell-titer-glo luminescent assay
Assay type: cell-based
Measurement Conditions: chlorocebus sabaeus, read-out: TC50
Endpoint Name: CC50 at 48 h

Can you share its CC50 at 48 h? I mean this compound: O=[N+]([O-])c1nccn1CCCCNc1ccnc2c(Cl)cccc12 66 µM

Look up CC50 at 48 h: O=[N+]([O-])c1ncn(CCCCNc2ncnc3ccccc23)n1 > 100 µM

Can you look up the measured CC50 at 48 h of Cl.O=[N+]([O-])c1nccn1CCCCNc1ccnc2cc(Cl)ccc12 for me? > 1680 µM

Query: CC50 at 48 h; subject: Cl.O=[N+]([O-])c1nccn1CCCNc1ccnc2cc(Cl)ccc12 399 µM

###

Assay Summary: Selectivity index, ratio of IC50 for rat L6 cells to IC50 for […] amastigotes infected in rat L6 cells
Type: toxicity, cell-based
Measurement Conditions: read-out: Ratio IC50
Endpoint Name: selectivity ratio
Output spec: single numeric token, no unit.

I'd like to know its selectivity ratio. The compound in question is O=[N+]([O-])c1nccn1CCCNc1ncnc2ccccc12 21

Looking for the measured selectivity ratio of O=[N+]([O-])c1nccn1CCCNc1ccnc2c(Cl)cccc12 , can you help? 97

Which value of selectivity ratio has been reported for O=[N+]([O-])c1nccn1CCCCNc1ccnc2c(Cl)cccc12 in the records? 18

Data request, read-out selectivity ratio, for Cl.O=[N+]([O-])c1nccn1CCCCNc1ccnc2cc(Cl)ccc12 19

Data request, read-out selectivity ratio, for O=[N+]([O-])c1ncn(CCCCNc2ncnc3ccccc23)n1 39

Fill in: selectivity ratio of Clc1cccc2c(NCCCCn3cncn3)ccnc12 is ___ 0.8

Tell me the measured selectivity ratio of Cl.O=[N+]([O-])c1ncn(CCCCNc2ccnc3cc(Cl)ccc23)n1 , please. 979

So what does the record say about selectivity ratio for O=[N+]([O-])c1nccn1CCCCNc1ncnc2ccccc12 ? 3.9

GET /values?readout=selectivity ratio&item= Cl.O=[N+]([O-])c1nccn1CCCNc1ccnc2cc(Cl)ccc12 24

Quick one: selectivity ratio for O=[N+]([O-])c1ncn(CCCCNc2ccnc3c(Cl)cccc23)n1 ? 128
